The measurements presented in this section are drawn from patent US20260184782A1.

Biological target: T1, recombinant human TIGIT (human, UniProt Q495A1 22-141, limits assumed)
T1 construct: also called T cell immunoreceptor with Ig and ITIM domains
T1 sequence (looked up): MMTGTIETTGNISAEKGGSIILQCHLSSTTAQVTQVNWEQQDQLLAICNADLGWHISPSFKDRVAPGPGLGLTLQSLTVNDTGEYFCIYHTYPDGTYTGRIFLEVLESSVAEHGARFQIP
Assay: SPR (Carterra), average
Experimental: Binding affinities of VHH-Fc proteins to recombinant human TIGIT were measured by SPR using a Carterra instrument (Table 10A). […] Average values reported from measurements from 1-2 samples.
The reader will find reported koff values listed item by item below.
Kindly format the answer as number then unit.

query: Please report koff for the following binder: TIGIT-SC196 (Fc fusion, VHH-Fc) VHH: EVQLVESGGGLVQPGGSLRLSCAASGFAFSSDWMGWFRQAPGKEREWVASVLRGGYTWYADSVKGRFTISADNSKNTAYLQMNSLKPEDTAVYYCATEGLGYWGQGTLVTVSS
result: 0.00692 s⁻¹

query: Please report koff for the following binder: TIGIT-SC157 (Fc fusion, VHH-Fc) VHH: EVQLVESGGGLVQPGGSLRLSCAASGFTFSPSWMGWFRQAPGKEREWVASVLRGGYTWYADSVKGRFTISADNSKNTAYLQMNSLKPEDTAVYYCTTEGYDFWSGYYDYWGQGTLVTVSS
result: 0.0054 s⁻¹

query: Please report koff for the following binder: TIGIT-SC210 (Fc fusion, VHH-Fc) VHH: EVQLVESGGGLVQPGGSLRLSCAASGFLFDSYWMVWFRQAPGKEREFVAAIWRSGTLKAYADSVKGRFTISADNSKNTAYLQMNSLKPEDTAVYYCARDHRAMVAPFDYWGQGTLVTVSS
result: 0.258 s⁻¹
